Data origin: patent US20100267750A1

target: hTRPA1 (Homo sapiens, UniProt O75762, K186N); test: hTRPA1 Fluo4 calcium flux assay in HEK293/TREx cells; conditions: Table 2; read-out: hTRPA1 Fluor IC50
Sequence (O75762 whole entry K186N): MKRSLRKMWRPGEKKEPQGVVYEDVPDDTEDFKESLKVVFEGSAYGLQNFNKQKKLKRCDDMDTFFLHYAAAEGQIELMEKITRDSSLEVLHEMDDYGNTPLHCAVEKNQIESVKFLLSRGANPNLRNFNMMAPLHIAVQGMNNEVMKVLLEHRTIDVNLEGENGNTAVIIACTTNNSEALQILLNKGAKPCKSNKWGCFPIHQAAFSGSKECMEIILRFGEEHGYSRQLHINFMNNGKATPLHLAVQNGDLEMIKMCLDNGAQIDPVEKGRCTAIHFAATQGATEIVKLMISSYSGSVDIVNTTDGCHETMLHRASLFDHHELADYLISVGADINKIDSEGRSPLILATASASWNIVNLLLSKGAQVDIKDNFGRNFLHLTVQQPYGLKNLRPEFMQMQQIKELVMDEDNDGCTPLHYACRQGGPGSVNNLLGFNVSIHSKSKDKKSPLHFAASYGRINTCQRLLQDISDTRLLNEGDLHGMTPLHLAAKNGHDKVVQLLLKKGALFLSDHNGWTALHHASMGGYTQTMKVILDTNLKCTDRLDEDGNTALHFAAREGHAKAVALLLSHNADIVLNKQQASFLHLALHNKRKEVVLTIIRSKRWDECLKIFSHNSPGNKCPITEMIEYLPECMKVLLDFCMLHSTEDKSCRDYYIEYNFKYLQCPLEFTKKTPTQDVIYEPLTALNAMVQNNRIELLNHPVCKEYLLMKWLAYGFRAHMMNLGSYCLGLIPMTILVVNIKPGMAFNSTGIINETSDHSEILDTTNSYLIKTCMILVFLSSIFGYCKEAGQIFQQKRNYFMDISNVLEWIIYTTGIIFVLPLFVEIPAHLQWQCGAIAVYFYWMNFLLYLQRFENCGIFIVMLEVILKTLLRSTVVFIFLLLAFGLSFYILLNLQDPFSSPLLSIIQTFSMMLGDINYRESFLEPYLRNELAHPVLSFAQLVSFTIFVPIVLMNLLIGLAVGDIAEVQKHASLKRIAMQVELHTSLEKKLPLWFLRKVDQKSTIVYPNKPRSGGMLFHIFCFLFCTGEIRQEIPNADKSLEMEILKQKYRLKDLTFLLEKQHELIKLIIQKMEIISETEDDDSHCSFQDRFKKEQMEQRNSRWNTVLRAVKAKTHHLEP
MEASURED PARAMETER: IC50

Q: Give recorded IC50 with hTRPA1 (Homo sapiens, UniProt O75762, K186N) for the following compound: `COC(=O)c1ccc(C)c(NC(=O)Cn2cnc3c2c(=O)n(C)c(=O)n3C)c1`
Result: ≤ 30 µM
